Molecular target: CYP3A5 (Homo sapiens, UniProt P20815)
Sequence (P20815 whole entry): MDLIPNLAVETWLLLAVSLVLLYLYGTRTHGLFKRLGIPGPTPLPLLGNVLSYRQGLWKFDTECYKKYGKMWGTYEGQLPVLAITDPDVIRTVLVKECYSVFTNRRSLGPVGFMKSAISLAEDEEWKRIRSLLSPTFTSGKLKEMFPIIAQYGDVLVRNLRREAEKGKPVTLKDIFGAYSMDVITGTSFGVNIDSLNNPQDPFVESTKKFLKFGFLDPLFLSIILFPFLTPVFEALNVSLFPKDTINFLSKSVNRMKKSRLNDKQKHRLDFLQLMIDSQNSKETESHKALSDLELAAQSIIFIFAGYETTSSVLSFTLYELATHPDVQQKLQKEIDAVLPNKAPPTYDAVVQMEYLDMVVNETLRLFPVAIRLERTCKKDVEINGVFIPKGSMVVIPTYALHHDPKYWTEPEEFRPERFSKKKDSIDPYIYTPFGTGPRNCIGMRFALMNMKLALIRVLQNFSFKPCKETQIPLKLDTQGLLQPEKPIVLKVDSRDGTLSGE
Test: in vitro
Recorded Endpoint: inhibition at 10 min, 300 µM (%)
Your answer is read as %, so omit the unit and give the number.

Query :: Report inhibition at 10 min, 300 µM for CC(=O)OCC(=O)[C@@]1(O)[C@H](C)C[C@H]2[C@@H]3CCC4=CC(=O)C=C[C@]4(C)[C@@]3(F)[C@@H](O)C[C@@]21C [dexamethasone acetate] please.
Result :: 35
